- study.target: BACE1 (Homo sapiens (Human), UniProt P56817)
- Sequence (P56817 75-416): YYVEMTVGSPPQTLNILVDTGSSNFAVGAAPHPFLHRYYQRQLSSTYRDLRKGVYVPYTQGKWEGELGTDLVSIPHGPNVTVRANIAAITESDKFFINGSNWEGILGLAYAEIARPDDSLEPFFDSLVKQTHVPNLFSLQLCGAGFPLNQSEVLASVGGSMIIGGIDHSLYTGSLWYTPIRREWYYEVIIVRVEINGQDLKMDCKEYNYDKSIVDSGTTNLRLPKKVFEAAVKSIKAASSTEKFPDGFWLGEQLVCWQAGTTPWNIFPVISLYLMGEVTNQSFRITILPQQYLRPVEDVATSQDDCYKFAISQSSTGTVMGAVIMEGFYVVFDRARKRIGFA
- assay.name: Measurement of BACE1 inhibition by fluorescence resonance energy transfer (FRET), MCA substrate
- study.conditions: read-out: Test Example 1 IC50; FRET, MCA-SEVNLDAEFK(DNP)-NH2 substrate, pH 4.4
property.name: IC50 (nM)

| compound | output.unit | value.measured |
| --- | --- | --- |
| NC1=NC2(CO1)c1cc(Br)ccc1OC(C1CC1)C21COC1 (single isomer, unassigned) [RP 12a] | nM | 38700 |
| CC1(C)Oc2ccc(NC(=O)c3ccc(F)cn3)cc2[C@@]2(COC(N)=N2)C12CC2 | nM | 138 |
| NC1=NC2(CO1)c1cc(NC(=O)c3ncc(Br)cn3)ccc1OCC21CC1 (centres unmarked) | nM | 661 |
| NC1=NC2(CO1)c1cc(-c3cc(F)ccc3F)ccc1OC1(CCC1)C21COC1 (centres unmarked) | nM | 1870 |
| Cc1cccc(-c2ccc3c(c2)C2(COC(N)=N2)C2(COC2)C2(CCC2)O3)c1 (centres unmarked) | nM | 2270 |
| CC1(C)Oc2ccc(-c3cccc4cnccc34)cc2C2(COC(N)=N2)C12COC2 (centres unmarked) | nM | 2030 |
| CCc1cncc(-c2ccc3c(c2)C2(COC(N)=N2)C2(CC2)CO3)c1 (centres unmarked) | nM | 7900 |
| CC1(C)Oc2ccc(-c3ccc4[nH]ccc4c3)cc2C2(COC(N)=N2)C12COC2 (centres unmarked) | nM | 3350 |
